List of Δλ (nm), blue shift of BSA band values.
- target-under-test: BSA (Bos taurus, UniProt P02769)
- Format: binding, bovine
- test-settings: 25 μM BSA, compound 0–25 μM

Here's what some known entries look like.
{"structure": "Oc1ccccc1N=Cc1ccc(N2CCOCC2)cc1", "Δλ (nm), blue shift of BSA band": "02 nm"}
{"structure": "[Ni+2].[O-]c1ccccc1N=Cc1ccc(N2CCOCC2)cc1.[O-]c1ccccc1N=Cc1ccc(N2CCOCC2)cc1.c1ccc(-c2ccccn2)nc1", "Δλ (nm), blue shift of BSA band": "02 nm"}
{"structure": "[Co+2].[O-]c1ccccc1N=Cc1ccc(N2CCOCC2)cc1.[O-]c1ccccc1N=Cc1ccc(N2CCOCC2)cc1.c1ccc(-c2ccccn2)nc1", "Δλ (nm), blue shift of BSA band": "02 nm"}

Query: Identify Δλ (nm), blue shift of BSA band associated with the molecule [Mn+2].[O-]c1ccccc1N=Cc1ccc(N2CCOCC2)cc1.[O-]c1ccccc1N=Cc1ccc(N2CCOCC2)cc1.c1ccc(-c2ccccn2)nc1
Result: 03 nm

* * *

- System: Salmonella enterica serovar typhi
- procedure-details: Agar disc diffusion, strain B
- Format: cell-based
- test-settings: control 6 mm
Classification field: Condition met = Diameter of clear zone inhibition at or over 10 mm; Condition not met = Diameter of clear zone inhibition under 10 mm.

{"molecule": "[Mn+2].[O-]c1ccccc1N=Cc1ccc(N2CCOCC2)cc1.[O-]c1ccccc1N=Cc1ccc(N2CCOCC2)cc1.c1ccc(-c2ccccn2)nc1", "label": "Condition met"}
{"molecule": "NCC[C@H](O)C(=O)N[C@@H]1C[C@H](N)[C@@H](O[C@H]2O[C@H](CN)[C@@H](O)[C@H](O)[C@H]2O)[C@H](O)[C@H]1O[C@H]1O[C@H](CO)[C@@H](O)[C@H](N)[C@H]1O [Amikacin, amikacin, reference compound]", "label": "Condition met"}
{"molecule": "Oc1ccccc1N=Cc1ccc(N2CCOCC2)cc1", "label": "Condition not met"}

Turning now to a further record.
Query: Entry [H]/N=C(/N)N[C@H]1[C@H](O)[C@@H](O)[C@H](O[C@@H]2O[C@@H](C)[C@](O)(C=O)[C@H]2O[C@@H]2O[C@@H](CO)[C@H](O)[C@@H](O)[C@@H]2NC)[C@@H](N/C(N)=N\[H])[C@@H]1O [Streptomycin, streptomycin, reference compound] : is its Diameter of clear zone inhibition no less than 10 mm?
Result: Condition met

* * *

- Tested on: CT-DNA
- procedure-details: DNA binding by viscometric (hydrodynamic) technique
- test-settings: [complex]/[DNA] = 0.4
// returns -1 unless Relative specific viscosity (η/η0)^1/3 is strictly below 0.8, in which case 1

{"molecule": "[Ni+2].[O-]c1ccccc1N=Cc1ccc(N2CCOCC2)cc1.[O-]c1ccccc1N=Cc1ccc(N2CCOCC2)cc1.c1ccc(-c2ccccn2)nc1", "target-under-test": "CT-DNA", "label": -1}
{"molecule": "Oc1ccccc1N=Cc1ccc(N2CCOCC2)cc1", "target-under-test": "CT-DNA", "label": 1}
{"molecule": "CC[n+]1c(-c2ccccc2)c2cc(N)ccc2c2ccc(N)cc21 [EB, ethidium bromide, reference compound]", "target-under-test": "CT-DNA", "label": -1}

Moving on to another molecule below.
Query: Regarding [Co+2].[O-]c1ccccc1N=Cc1ccc(N2CCOCC2)cc1.[O-]c1ccccc1N=Cc1ccc(N2CCOCC2)cc1.c1ccc(-c2ccccn2)nc1 , kindly confirm whether its Relative specific viscosity (η/η0)^1/3 is beneath 0.8.
Result: -1

* * *

- target-under-test: BSA (Bos taurus, UniProt P02769)
- procedure-details: FRET computation, donor (BSA)–acceptor (compound)
- Assay type: binding, bovine
endpoint-label: r (donor–acceptor distance) (nm)
Lab book: enter the figure in nm, no units written.

Use these answered entries as a reference point.
{"structure": "[Mn+2].[O-]c1ccccc1N=Cc1ccc(N2CCOCC2)cc1.[O-]c1ccccc1N=Cc1ccc(N2CCOCC2)cc1.c1ccc(-c2ccccn2)nc1", "r (donor–acceptor distance) [nm]": 2.6511}
{"structure": "[Ni+2].[O-]c1ccccc1N=Cc1ccc(N2CCOCC2)cc1.[O-]c1ccccc1N=Cc1ccc(N2CCOCC2)cc1.c1ccc(-c2ccccn2)nc1", "r (donor–acceptor distance) [nm]": 2.4127}
{"structure": "Oc1ccccc1N=Cc1ccc(N2CCOCC2)cc1", "r (donor–acceptor distance) [nm]": 2.7129}

Could you now look at the following compound, please?
Query: Please indicate r (donor–acceptor distance) recorded for [Co+2].[O-]c1ccccc1N=Cc1ccc(N2CCOCC2)cc1.[O-]c1ccccc1N=Cc1ccc(N2CCOCC2)cc1.c1ccc(-c2ccccn2)nc1
Result: 2.5297

* * *

- Tested on: Candida albicans
- procedure-details: Agar disc diffusion, strain I
- Assay type: cell-based
- test-settings: control 6 mm
Items are presented alongside their recorded Diameter of clear zone inhibition.
The reply should be a number in mm, with the unit left off.

{"molecule": "C[C@@H]1[C@H](O)[C@@H](C)/C=C/C=C/C=C/C=C/C=C/C=C/C=C/[C@H](O[C@@H]2O[C@H](C)[C@@H](O)[C@H](N)[C@@H]2O)C[C@@H]2O[C@](O)(C[C@@H](O)C[C@@H](O)[C@H](O)CC[C@@H](O)C[C@@H](O)CC(=O)O[C@H]1C)C[C@H](O)[C@H]2C(=O)O [Amphotericin B, amphotericin B, reference compound]", "Diameter of clear zone inhibition, mm": 17}

Now look at this entry.
Query: Report Diameter of clear zone inhibition for [Co+2].[O-]c1ccccc1N=Cc1ccc(N2CCOCC2)cc1.[O-]c1ccccc1N=Cc1ccc(N2CCOCC2)cc1.c1ccc(-c2ccccn2)nc1 [(2)]
Result: 12

* * *

- Test system: A549
- procedure-details: MTT cell viability assay, A549
- Assay type: cell-based, human
- test-settings: Homo sapiens; A549, 72 h of exposure
endpoint-label: IC50 (µM)
All answers are understood in µM, so give the number only.

Query: Send back A549 IC50 of Oc1ccccc1N=Cc1ccc(N2CCOCC2)cc1 only.
Result: 126

* * *

- procedure-details: Shake flask n-octanol/deionized water partition (lipophilicity)
- Type: physicochemical
- test-settings: n-octanol/deionised water, pH 7.11
endpoint-label: logD at 24 h
Output: the number by itself.

Query: Fill in reported logD at 24 h for this entry: Oc1ccccc1N=Cc1ccc(N2CCOCC2)cc1
Result: 0.814

* * *

Recorded measurements of % Inhibition, hydroxyl radical, one per entry
- procedure-details: Hydroxyl radical scavenging assay
- Type: biochemical
- test-settings: 120 µM, 230 nm
Express the result in % but write the number alone.

{"molecule": "[Mn+2].[O-]c1ccccc1N=Cc1ccc(N2CCOCC2)cc1.[O-]c1ccccc1N=Cc1ccc(N2CCOCC2)cc1.c1ccc(-c2ccccn2)nc1 [(1)]", "result-number": 28.56}
{"molecule": "[Ni+2].[O-]c1ccccc1N=Cc1ccc(N2CCOCC2)cc1.[O-]c1ccccc1N=Cc1ccc(N2CCOCC2)cc1.c1ccc(-c2ccccn2)nc1 [(3)]", "result-number": 26.12}
{"molecule": "[Co+2].[O-]c1ccccc1N=Cc1ccc(N2CCOCC2)cc1.[O-]c1ccccc1N=Cc1ccc(N2CCOCC2)cc1.c1ccc(-c2ccccn2)nc1 [(2)]", "result-number": 26.23}
{"molecule": "Oc1ccccc1N=Cc1ccc(N2CCOCC2)cc1 [(HL), 2-(4-morpholinobenzylideneamino)phenol]", "result-number": 25.52}

Moving on to another molecule below.
Query: Supply reported % Inhibition, hydroxyl radical belonging to this molecule: O=C1O[C@H]([C@@H](O)CO)C(O)=C1O [Ascorbic acid, ascorbic acid, reference compound]
Result: 47.87
